target-or-test-system: WT BTK protein (Homo sapiens)
Construct: measured for intracellular BTK protein levels by Western blotting; endogenous in cells; host or cells: TMD-8 or RAMOS cells
Sequence (Q06187 whole entry): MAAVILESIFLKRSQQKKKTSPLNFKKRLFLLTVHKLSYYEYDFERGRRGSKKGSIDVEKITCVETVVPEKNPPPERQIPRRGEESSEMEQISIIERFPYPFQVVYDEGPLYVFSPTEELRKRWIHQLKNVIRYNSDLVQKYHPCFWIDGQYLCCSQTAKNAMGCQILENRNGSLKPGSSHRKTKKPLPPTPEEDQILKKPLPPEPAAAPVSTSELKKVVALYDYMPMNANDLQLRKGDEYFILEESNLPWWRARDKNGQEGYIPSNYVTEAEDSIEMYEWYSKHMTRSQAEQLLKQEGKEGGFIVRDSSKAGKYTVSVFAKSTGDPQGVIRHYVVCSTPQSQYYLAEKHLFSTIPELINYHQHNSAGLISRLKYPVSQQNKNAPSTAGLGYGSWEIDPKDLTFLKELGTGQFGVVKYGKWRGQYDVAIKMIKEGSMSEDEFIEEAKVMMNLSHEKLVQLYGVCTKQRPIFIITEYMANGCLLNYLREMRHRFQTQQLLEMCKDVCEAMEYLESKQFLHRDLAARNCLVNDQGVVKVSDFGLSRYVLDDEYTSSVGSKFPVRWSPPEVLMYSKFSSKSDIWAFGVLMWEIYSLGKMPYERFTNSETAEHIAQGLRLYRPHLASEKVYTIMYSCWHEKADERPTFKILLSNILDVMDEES
experimental-details: BTK protein degradation assay (Western blotting), WT BTK
Type: cell-based
condition-details: concentration range accounting for 50% degradation of WT BTK protein, TMD-8 or RAMOS cells, 24 hours
observed-property: DC50

Worked examples, 2 compounds total:
INSERT INTO measurements (compound, experimental_value) VALUES
  ('Cc1cccc(C)c1Nc1nn(C)c2nc(Nc3ccc(C4CCN(C(=O)C5(F)CCN(c6cc7c(cc6F)C(=O)N(C6CCC(=O)NC6=O)C7=O)CC5)CC4)cc3)ncc12 (stereo not shown) [Compound 254]', '10 to 1000 nM'),
  ('Cc1cccc(C)c1Nc1nn(C)c2nc(Nc3ccc(N4CCN(CC5CCN(C(=O)c6ccc7c(c6)CN(C6CCC(=O)NC6=O)C7=O)CC5)CC4)cc3)ncc12 (stereo not shown) [Compound 256]', '0.1 to 10 nM');

Query string: Please look up its DC50: Cn1nc(Nc2c(Cl)cccc2Cl)c2cnc(Nc3ccc4c(c3)CN(CC3CCN(c5ccc6c(c5)C(=O)N(C5CCC(=O)NC5=O)C6=O)CC3)CC4)nc21 (stereo not shown) [Compound 82]
Result string: 0.1 to 10 nM
